Test system: Mycobacterium tuberculosis (strain H37RV)
Assay: In-vitro method for testing compounds against M. tuberculosis (resazurin growth inhibition, MIC)
Assay type: cell-based
Details: MIC data representing IC90's, 7 days incubation, resazurin fluorescence
endpoint: log10 MIC (log10 of the value in microgram/ml)

1) COc1nc2ccc(Br)cc2cc1C(c1ccccc1)C(O)(CCN(C)C)c1ccc(C#N)cc1 (racemic) [Compound 80]    0.32
2) COc1nc2ccc(Br)cc2cc1C(c1ccccc1)C(O)(CCN(C)C)c1cccc(C(F)(F)F)c1 (single isomer, unassigned)    -0.44
3) COc1nc2ccc(Br)cc2cc1C(c1ccccc1)C(O)(CCN(C)C)C1CCN(C(=O)c2ccccc2)CC1 (single isomer, unassigned) [Compound 201]    0.99
4) COc1nc2ccc(Br)cc2cc1C(c1ccccc1)C(O)(CCN(C)C)c1ccc(F)cc1 (single isomer, unassigned) [Compound 182]    0.92
5) COc1nc2ccc(Br)cc2cc1C(c1ccccc1)C(O)(CCN1CCCCC1)c1cccc2ccccc12 (stereo not shown)    1.77
6) COc1ccc2nc(OC)c(C(c3ccccc3)C(O)(CCN(C)C)c3cccc(F)c3)cc2c1 (single isomer, unassigned) [Compound 135]    0.18
7) COc1nc2ccc(Br)cc2cc1C(c1ccccc1)C(O)(CCn1ccnc1)c1cccc2ccccc12 (single isomer, unassigned) [Compound 173]    1.76
8) COc1nc2ccccc2cc1C(c1ccccc1)C(O)(CCN(C)C)c1ccccc1 (single isomer, unassigned) [Compound 40]    1.33
9) COc1nc2ccc(Br)cc2cc1C(c1ccccc1)C(O)(CCN(C)C)c1ccc2c(c1)OCCO2 (racemic) [Compound 77]    0.95
10) COc1nc2ccc(Br)cc2cc1C(c1ccccc1)C(O)(CCN1CCN(C)CC1)c1ccc2ccccc2c1 (racemic) [Compound 137]    1.63
11) CCN(CC)CCCC(O)(c1ccc2ccccc2c1)C(c1ccccc1)c1cc2cc(Br)ccc2nc1OC (single isomer, unassigned) [Compound 192]    0.78
12) COc1nc2ccc(Br)cc2cc1C(c1ccccc1)C(O)(CCn1ccnc1)c1ccccc1 (stereo not shown)    1.72
13) COc1nc2ccc(Br)cc2cc1C(c1ccccc1)C(O)(CCCN1CCOCC1)c1cccc2ccccc12 (single isomer, unassigned) [Compound 211]    1.79
